target: soluble, sperm-specific adenylate cyclase (sAC) (Homo sapiens, UniProt Q96PN6)
Sequence (Q96PN6 whole entry): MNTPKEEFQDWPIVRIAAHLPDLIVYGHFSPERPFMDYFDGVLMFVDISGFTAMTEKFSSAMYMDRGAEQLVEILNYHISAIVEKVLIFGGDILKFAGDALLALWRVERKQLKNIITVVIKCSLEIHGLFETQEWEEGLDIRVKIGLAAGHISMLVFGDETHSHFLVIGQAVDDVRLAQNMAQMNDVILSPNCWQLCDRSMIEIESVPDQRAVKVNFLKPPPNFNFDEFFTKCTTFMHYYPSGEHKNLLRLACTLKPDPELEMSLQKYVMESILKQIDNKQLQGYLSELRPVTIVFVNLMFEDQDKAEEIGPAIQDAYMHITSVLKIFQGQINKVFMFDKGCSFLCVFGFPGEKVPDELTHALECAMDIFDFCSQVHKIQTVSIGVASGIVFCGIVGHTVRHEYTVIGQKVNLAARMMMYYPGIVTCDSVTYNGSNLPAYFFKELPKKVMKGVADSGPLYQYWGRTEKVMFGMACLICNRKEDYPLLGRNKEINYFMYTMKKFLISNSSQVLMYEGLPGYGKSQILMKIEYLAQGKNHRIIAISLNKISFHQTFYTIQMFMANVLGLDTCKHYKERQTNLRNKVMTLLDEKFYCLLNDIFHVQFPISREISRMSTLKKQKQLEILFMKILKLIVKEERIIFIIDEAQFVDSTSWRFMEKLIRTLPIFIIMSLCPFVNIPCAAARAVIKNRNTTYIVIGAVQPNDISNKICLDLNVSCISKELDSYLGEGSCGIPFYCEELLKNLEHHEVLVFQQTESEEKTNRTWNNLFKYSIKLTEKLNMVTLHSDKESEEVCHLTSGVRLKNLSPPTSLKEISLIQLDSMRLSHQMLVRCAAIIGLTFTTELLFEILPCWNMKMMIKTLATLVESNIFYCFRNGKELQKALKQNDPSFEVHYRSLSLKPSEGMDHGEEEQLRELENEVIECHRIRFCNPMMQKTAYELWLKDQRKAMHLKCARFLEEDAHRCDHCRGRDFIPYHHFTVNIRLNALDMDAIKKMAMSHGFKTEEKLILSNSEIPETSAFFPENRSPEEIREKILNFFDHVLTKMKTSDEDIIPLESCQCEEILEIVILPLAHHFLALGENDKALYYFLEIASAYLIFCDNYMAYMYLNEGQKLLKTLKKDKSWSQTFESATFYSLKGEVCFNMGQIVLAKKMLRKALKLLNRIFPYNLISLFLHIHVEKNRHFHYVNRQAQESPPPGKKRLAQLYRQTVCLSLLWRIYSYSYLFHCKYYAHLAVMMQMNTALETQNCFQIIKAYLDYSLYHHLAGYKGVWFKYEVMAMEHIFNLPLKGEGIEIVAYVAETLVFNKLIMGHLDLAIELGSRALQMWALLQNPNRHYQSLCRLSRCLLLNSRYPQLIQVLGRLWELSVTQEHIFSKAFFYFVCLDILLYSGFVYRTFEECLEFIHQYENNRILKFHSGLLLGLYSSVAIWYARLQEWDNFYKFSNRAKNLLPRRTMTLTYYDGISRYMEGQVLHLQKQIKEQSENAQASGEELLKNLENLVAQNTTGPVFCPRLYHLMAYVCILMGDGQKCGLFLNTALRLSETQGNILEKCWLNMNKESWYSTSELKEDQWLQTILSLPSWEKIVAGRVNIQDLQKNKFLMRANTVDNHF
What pIC50 was measured for each of the following?
// pIC50 here means minus log10 of the molar concentration (mol/L)

-- ask Fill blank: measured pIC50 of the compound CC(C)(C)c1ccc(S(=O)(=O)Nc2cnc3[nH]c(C(=O)N[C@H]4CCC[C@H]4O)c(-c4ccccc4)c3c2)cc1 [Example 8] is ____.
-- reply 7.89

-- ask Thanks! And CC(C)(C)c1ccc(S(=O)(=O)Nc2cnc3[nH]c(C(=O)NCC4CCCO4)c(-c4ccccc4)c3c2)cc1 (racemic) [Example 10] ?
-- reply 7.19
